- System: LPS-stimulated RAW264.7 cells
- measurement description: NO release inhibition in LPS-stimulated RAW264.7 cells (Griess reagent)
- Type: cell-based
- settings: Mus musculus; LPS-stimulated RAW264.7 cells; Griess Reagent
measurement name: IC50 (µM)
Your answer should be a plain number; it is taken to be in µM.

CC(=O)Nc1ccc(NC(=O)c2cc(-c3ccc(Cl)cc3)cnc2N)cc1 :: 4.2

Turning to the following compound.
# IC50 (compound: `CC(=O)Nc1ccc(NC(=O)c2cc(-c3ccc(S(C)(=O)=O)cc3)cnc2N)cc1` ) is 17.8

###

IC50 by entry:
- measurement description: Cytotoxicity by MTT assay
- Assay type: cell-based

Some solved entries appear below for comparison.
CC(=O)Nc1ccc(NC(=O)c2cc(-c3cccc(O)c3)cnc2N)cc1 :: > 50 µM
CCc1ccc(-c2cnc(N)c(C(=O)Nc3ccc(NC(C)=O)cc3)c2)cc1 :: > 25 µM
CCc1ccc(-c2cnc(N)c(C(=O)Nc3ccccc3NC(C)=O)c2)cc1 :: 3.2 µM
CC(=O)Nc1ccc(NC(=O)c2cc(-c3ccc(C#N)cc3)cnc2N)cc1 :: > 50 µM
CCc1ccc(-c2cc(C(=O)Nc3ccc(NC(C)=O)cc3)cnc2N)cc1 :: > 25 µM

# IC50 (compound: `CCc1ccc(-c2cnc(N)c(C(=O)Nc3ccccc3N)c2)cc1` ) is 4.7 µM

# IC50 (compound: `CCc1ccc(-c2cnc(N)c(C(=O)Nc3ccc(N)cc3)c2)cc1` ) is 7.3 µM

# IC50 (compound: `CC(=O)Nc1ccc(NC(=O)c2cc(-c3ccccc3Cl)cnc2N)cc1` ) is > 50 µM

# IC50 (compound: `CC(=O)Nc1ccc(NC(=O)c2cc(-c3ccccc3O)cnc2N)cc1` ) is > 50 µM

###

- measurement description: Cytotoxicity by MTT assay
- Assay type: cell-based
pIC50: −log10 of the molar value.
measurement name: pIC50

Some solved entries appear below for comparison.
CC(=O)Nc1ccc(NC(=O)c2cc(-c3ccc(Cl)cc3)cnc2N)cc1 :: < 4.30
CC(=O)Nc1ccc(NC(=O)c2cc(-c3ccc(C=O)c(C)c3)cnc2N)cc1 :: < 4.30
CCc1ccc(-c2ccnc(C(=O)Nc3ccc(NC(C)=O)cc3)c2)cc1 :: < 4.60

# pIC50 (molecule: `CCc1ccc(-c2cnc(N)c(C(=O)Nc3ccc(C)cc3)c2)cc1` ) is < 4.60

###

pIC50 by entry:
- Test system: LPS-stimulated RAW264.7 cells
- measurement description: NO release inhibition in LPS-stimulated RAW264.7 cells (Griess reagent)
- Type: cell-based
- settings: Mus musculus; LPS-stimulated RAW264.7 cells; Griess Reagent
Scale for pIC50: -log10 of concentration given in mol/L; no unit attached.

# pIC50 (molecule: CCc1ccc(-c2cncc(C(=O)Nc3ccc(NC(C)=O)cc3)c2)cc1 [Compound 25] ) is 4.60

# pIC50 (molecule: CCc1ccc(-c2cccc(C(=O)Nc3ccc(NC(C)=O)cc3)c2)cc1 [Compound 23] ) is 4.49

# pIC50 (molecule: CC(=O)Nc1ccc(NC(=O)c2cc(-c3ccc(C(F)(F)F)cc3)cnc2N)cc1 [Compound 40] ) is 4.58

# pIC50 (molecule: CCc1ccc(-c2cc(C(=O)Nc3ccc(NC(C)=O)cc3)ccn2)cc1 [Compound 24] ) is 4.85

# pIC50 (molecule: CCc1ccc(-c2ccnc(C(=O)Nc3ccc(NC(C)=O)cc3)c2)cc1 [Compound 26] ) is 4.71
